Provenance of the data: PubChem BioAssay (NCI)

- Tested on: EKVX NSCLC
- EXPERIMENTAL_DETAILS: NCI tumour cell line growth inhibition, 48 h
Can you tell me TGI for the items I'm about to list?

| MOLECULE | MEASURED_ENDPOINT | REPORTED_RESULT |
| --- | --- | --- |
| CSCC(COC(C)=O)(CSC)c1ccncc1 | TGI | > 100 µM |
| Clc1ccc(Nc2ncnc3c2sc2ncccc23)c(Cl)c1 | TGI | > 100 µM |
| CN1CCN(Cn2nc(-c3cc(F)c(Cl)cc3Cl)oc2=S)CC1 | TGI | > 100 µM |
| CCOC(=O)[C@@]12NN=N[C@@H]1[C@H]1CO[C@H](c3ccccc3)N1C2=O | TGI | 28.8 µM |
| COc1ccc2nc3c([N+](=O)[O-])ccc(NCCCN(C)C)c3c(N)c2c1 | TGI | 3.68 µM |
| COC(=O)CC1NC(=O)C1C(C)(OC)OC (stereo not drawn) | TGI | > 100 µM |

Dear reader, for each entry below, please note its TGI.
1. O=C1Nc2c(ccc(Cl)c2Cl)/C1=C\c1cc(C(F)(F)F)cc(C(F)(F)F)c1
2. COC(=O)C1Cc2c([nH]c3ccccc23)-c2[nH]c3ccccc3c2CC(NC(C)=O)C(=O)N2CCCC2C(=O)N1 (stereo not drawn)
3. NC(CSC1(c2ccc(Cl)cc2)c2ccccc2-c2ccccc21)C(=O)O (stereo not drawn)

Result:
1. 11.2 µM
2. > 100 µM
3. > 100 µM

Parameters: items (list). Returns: TGI for each item.
1. CCN(CC)CC(O)c1cc(-c2ccc(Cl)cc2)nc2cc(Cl)ccc12 (stereo not drawn)
2. O=C(Nc1nc(-c2ccccc2Cl)cs1)c1cc(-c2ccc(Cl)cc2)nc2ccc(Cl)cc12
3. O=C1C(=Cc2ccc([N+](=O)[O-])o2)C(=O)N(CCc2ccccc2)S(=O)(=O)N1CCc1ccccc1
4. [Au+].c1c[n-]cn1.c1ccc([PH+](c2ccccc2)c2ccccc2)cc1

Result:
["8.04 µM", "> 100 µM", "> 100 µM", "38.2 µM"]
